TEST TARGET: EcRecQ catalytic core S245A (Escherichia coli, UniProt P15043 1-523, S245A)
ASSAY PROCEDURE: fluorescence anisotropy; apparent Kd; 1 mM Mg2+; 20 mM Tris-HCl pH 8.0, 100 mM NaCl, 1 mM MgCl2, 1 mM 2-mercaptoethanol, 0.1 mg/mL BSA, 4% glycerol; 5 nM DNA, 30 min at room temperature, read at 25 C (G4 folded in 10 mM Tris-HCl pH 8.0, 100 mM KCl)
ASSAY SETUP: protein: recombinant; tags: N-terminal His tag removed (thrombin); label: 3' FAM on Duplex 1; 18 bp, 3' overhang 12 nt on strand 1
pKd: −log10 of the molar value.

# BINDER, pKd
measured = [
    ("Duplex 1/Duplex 2 (dsDNA) DNA 1: GCGTGGGTAATTGTGCTTCAATGGACTGAC DNA 2: AAGCACAATTACCCACGC", 5.66),
]

The reported measurements were obtained from paper PMC6180126.
